Cited source for all entries: ChEMBL document CHEMBL1201862

Parameter: GI50. Scope: all listed entries.
Test system: HCT-116
test-method-notes: NCI tumour cell line growth inhibition, 48 h
Activity calls are given as the source filed them. No stated cut-off is given here; in the data, active = GI50 up to about 1.1 µM and inactive = higher.
measured-attribute: GI50

1) Cc1cc(Cl)ccc1N1C(=O)C(=O)C(c2nc3ccccc3o2)C(=O)C1=O | 46.5 µM (inactive)
2) COc1ccc(CNc2nc(NC3CCCCC3)nc(NC3CCCCC3)n2)cc1 | 2.85 µM (inactive)
3) COc1cc2c3c(c1O)C1(C=CC(=O)C=C1)CC3N(C)CC2 (centres undefined) | 3.81 µM (inactive)
4) O=C1C[C@@H](C(=O)OCc2ccccc2)NC(=O)C[C@@H](C(=O)OCc2ccccc2)NC(=O)C[C@@H](C(=O)OCc2ccccc2)N1 | > 84.1 µM (inactive)
5) Cn1ncc2c(NCCc3ccccc3)nc(Cl)nc21 | 27.8 µM (inactive)
6) Nc1n[n+]([O-])c2cc([N+](=O)[O-])ccc2[n+]1[O-] | 2.9 µM (inactive)
7) c1ccc(CN2COc3c(ccc4c5c(ccc34)CN(Cc3ccccc3)CO5)C2)cc1 | > 100 µM (inactive)
8) C[n+]1cccc(NC(=O)c2ccc(NC(=O)C34CCC(C(=O)Nc5ccc(C(=O)Nc6ccc[n+](C)c6)cc5)(CC3)CC4)cc2)c1 | 33.5 µM (inactive)
9) CC(C)OP(=O)(OC(C)C)/C(Cl)=N/Nc1ccc([N+](=O)[O-])cc1 | > 100 µM (inactive)
